Assign CC50 at 48 h to each entry below.
assay: Cytotoxicity against mouse RAW264.7 cells assessed as inhibition of cell viability incubated for 48 hrs by MTT assay; assay type: toxicity, cell-based

Suppose we examine the compound "CNC(=S)N/N=C(\C)c1cccnc1" ; what CC50 at 48 h value has been reported?
148 µM

"C/C(=N\N=c1\scc(-c2cccc([N+](=O)[O-])c2)n1C)c1cccnc1" , same question.
17.5 µM

"C[C@@H]1[C@H](O)[C@@H](C)/C=C/C=C/C=C/C=C/C=C/C=C/C=C/[C@H](O[C@@H]2O[C@H](C)[C@@H](O)[C@H](N)[C@@H]2O)C[C@@H]2O[C@](O)(C[C@@H](O)C[C@@H](O)[C@H](O)CC[C@@H](O)C[C@@H](O)CC(=O)O[C@H]1C)C[C@H](O)[C@H]2C(=O)O" , same question.
3.5 µM

"C/C(=N\N=c1\scc(-c2ccc(F)cc2)n1C)c1cccnc1" , same question.
15 µM

"C/C(=N\N=c1\scc(-c2cccc([N+](=O)[O-])c2)n1-c1ccccc1)c1cccnc1" , same question.
> 240 µM

---

assay: Selectivity index, ratio of CC50 for mouse RAW264.7 cells to IC50 for antiparasitic activity against Leishmania amazonensis WHOM/00 LTB 0016 promastigote expressing Escherichia coli beta-galactosidase; type: toxicity; conditions: read-out: Selectivity Index
Rule: measured selectivity ratio below 0.5 gets met; anything equal to or greater than 0.5 gets not met.

Please state whether selectivity ratio is below 0.5 for CCCCCCCCCCCCCCCCOP(=O)([O-])OCC[N+](C)(C)C [MILTEFOSINE]
not met

"C/C(=N\N=c1\scc(-c2ccccc2)n1C)c1cccnc1" , same question.
not met

"C/C(=N\N=c1\scc(-c2ccc(C)cc2)n1-c1ccccc1)c1cccnc1" , same question.
not met

"COc1ccc(-c2cs/c(=N/N=C(\C)c3cccnc3)n2-c2ccccc2)cc1" , same question.
not met

"CNC(=S)N/N=C(\C)c1cccnc1" , same question.
met

C[C@@H]1[C@H](O)[C@@H](C)/C=C/C=C/C=C/C=C/C=C/C=C/C=C/[C@H](O[C@@H]2O[C@H](C)[C@@H](O)[C@H](N)[C@@H]2O)C[C@@H]2O[C@](O)(C[C@@H](O)C[C@@H](O)[C@H](O)CC[C@@H](O)C[C@@H](O)CC(=O)O[C@H]1C)C[C@H](O)[C@H]2C(=O)O [AMPHOTERICIN B] , same question.
not met

"COc1ccc(-c2cs/c(=N/N=C(\C)c3cccnc3)n2C)cc1" , same question.
met

"C/C(=N\N=c1\scc(-c2cccc([N+](=O)[O-])c2)n1-c1ccccc1)c1cccnc1" , same question.
not met

"C/C(=N\N=c1\scc(-c2ccc([N+](=O)[O-])cc2)n1C)c1cccnc1" , same question.
met

"C/C(=N\N=c1/[nH]c(-c2ccc(C)cc2)cs1)c1cccnc1" , same question.
met

"C/C(=N\N=c1\scc(-c2ccc([N+](=O)[O-])cc2)n1-c1ccccc1)c1cccnc1" , same question.
not met

"C/C(=N\N=c1\scc(-c2ccc(F)cc2)n1-c1ccccc1)c1cccnc1" , same question.
not met

"C/C(=N\NC(=S)Nc1ccccc1)c1cccnc1" , same question.
not met

"C/C(=N\Nc1nc(-c2ccccc2)cs1)c1cccnc1" , same question.
met

"C/C(=N\N=c1\scc(-c2ccccc2)n1-c1ccccc1)c1cccnc1" , same question.
not met

---

assay: Toxicity in male Swiss mouse infected with Trypanosoma cruzi Y trypomastigotes assessed as mortality at 100 mg/kg/day, po pre-infected with parasite followed by compound addition and measured after 5 to 9 days relative to control; assay type: organism-based; conditions: male, Swiss, in vivo, time 5-9 day, read-out: Activity
endpoint-label: mortality
Answer format: number, then unit.

Suppose we examine the compound O=C(Cn1ccnc1[N+](=O)[O-])NCc1ccccc1 [BENZNIDAZOLE] ; what mortality value has been reported?
100%

---

assay: Selectivity index, ratio of CC50 for mouse RAW264.7 cells to IC50 for antiparasitic activity against Leishmania infantum amastigote expressing Escherichia coli beta-galactosidase infected in mouse RAW264.7 cells; format: toxicity; settings: read-out: Selectivity Index
endpoint-label: selectivity ratio
Number, no unit, nothing else.

Suppose we examine the compound "C/C(=N\N=c1/[nH]c(-c2ccc([N+](=O)[O-])cc2)cs1)c1cccnc1" ; what selectivity ratio value has been reported?
1.4

"C/C(=N\N=c1\scc(-c2ccc([N+](=O)[O-])cc2)n1-c1ccccc1)c1cccnc1" , same question.
2.4

"C/C(=N\N=c1\scc(-c2ccc(C)cc2)n1C)c1cccnc1" , same question.
2

"C/C(=N\N=c1\scc(-c2ccc(C)cc2)n1-c1ccccc1)c1cccnc1" , same question.
1.2

"C/C(=N\N=c1\scc(-c2ccccc2)n1-c1ccccc1)c1cccnc1" , same question.
3.3

---

system: Leishmania infantum; assay: Antiparasitic activity against Leishmania infantum amastigote expressing Escherichia coli beta-galactosidase infected in mouse RAW264.7 cells assessed as reduction in parasitic growth using CPRG as substrate preincubated with compound for 24 hrs followed by substrate addition and measured after 2 to 6 hrs by Spectrophotometric analysis; assay type: functional, organism-based; settings: Leishmania infantum, RAW264.7; read-out: IC50
endpoint-label: IC50 (µM)
Quick note: give the figure in µM, leave out the unit.

Fill in the recorded IC50 for this compound, with Leishmania infantum as test system: "C/C(=N\N=c1\scc(-c2ccc(F)cc2)n1C)c1cccnc1"
12.5

"C/C(=N\N=c1\scc(-c2cccc([N+](=O)[O-])c2)n1C)c1cccnc1" , same question.
33.3

"COc1ccc(-c2cs/c(=N/N=C(\C)c3cccnc3)n2-c2ccccc2)cc1" , same question.
9.5

"C/C(=N\Nc1nc(-c2cccc([N+](=O)[O-])c2)cs1)c1cccnc1" , same question.
93.8

"C/C(=N\N=c1\scc(-c2ccc(C)cc2)n1-c1ccccc1)c1cccnc1" , same question.
16.1

"C/C(=N\N=c1/[nH]c(-c2ccc([N+](=O)[O-])cc2)cs1)c1cccnc1" , same question.
45.6

"COc1ccc(-c2cs/c(=N/N=C(\C)c3cccnc3)n2C)cc1" , same question.
12.4

"C/C(=N\N=c1\scc(-c2cccc([N+](=O)[O-])c2)n1-c1ccccc1)c1cccnc1" , same question.
11.5

"C/C(=N\NC(=S)Nc1ccccc1)c1cccnc1" , same question.
21.1

"C/C(=N\N=c1\scc(-c2ccccc2)n1-c1ccccc1)c1cccnc1" , same question.
8.9

---

test system: Trypanosoma cruzi; experiment: Antiparasitic activity against trypomastigote form of Trypanosoma cruzi Y assessed as presence of bubbles by Electron micrographic analysis; assay type: functional, organism-based

chemical-smiles	target-or-test-system	Activity
C/C(=N\N=c1\scc(-c2ccccc2)n1C)c1cccnc1	Trypanosoma cruzi	Dose-dependent-effect
C/C(=N\Nc1nc(-c2ccccc2)cs1)c1cccnc1	Trypanosoma cruzi	Dose-dependent-effect
C/C(=N\Nc1nc(-c2cccc([N+](=O)[O-])c2)cs1)c1cccnc1	Trypanosoma cruzi	Dose-dependent-effect
COc1ccc(-c2cs/c(=N/N=C(\C)c3cccnc3)[nH]2)cc1	Trypanosoma cruzi	Dose-dependent-effect

---

experiment: Selectivity index, ratio of CC50 for mouse RAW264.7 cells to IC50 for antiparasitic activity against Leishmania infantum amastigote expressing Escherichia coli beta-galactosidase infected in mouse RAW264.7 cells; format: toxicity; conditions: read-out: Selectivity Index
Threshold check on selectivity ratio: at or above 2 gives Condition met, strictly below gives Condition not met.

Textbook exercise: given the entry "C/C(=N\N=c1\scc(-c2ccc(F)cc2)n1-c1ccccc1)c1cccnc1" , state whether its selectivity ratio is greater than or equal to 2.
Condition met

"C/C(=N\Nc1nc(-c2ccccc2)cs1)c1cccnc1" , same question.
Condition not met

C[C@@H]1[C@H](O)[C@@H](C)/C=C/C=C/C=C/C=C/C=C/C=C/C=C/[C@H](O[C@@H]2O[C@H](C)[C@@H](O)[C@H](N)[C@@H]2O)C[C@@H]2O[C@](O)(C[C@@H](O)C[C@@H](O)[C@H](O)CC[C@@H](O)C[C@@H](O)CC(=O)O[C@H]1C)C[C@H](O)[C@H]2C(=O)O [AMPHOTERICIN B] , same question.
Condition met

"C/C(=N\N=c1\scc(-c2ccccc2)n1C)c1cccnc1" , same question.
Condition not met

"C/C(=N\N=c1\scc(-c2cccc([N+](=O)[O-])c2)n1-c1ccccc1)c1cccnc1" , same question.
Condition met

"C/C(=N\N=c1\scc(-c2cccc([N+](=O)[O-])c2)n1C)c1cccnc1" , same question.
Condition not met

CCCCCCCCCCCCCCCCOP(=O)([O-])OCC[N+](C)(C)C [MILTEFOSINE] , same question.
Condition met

"COc1ccc(-c2cs/c(=N/N=C(\C)c3cccnc3)n2C)cc1" , same question.
Condition not met

"C/C(=N\NC(N)=S)c1cccnc1" , same question.
Condition not met

"COc1ccc(-c2cs/c(=N/N=C(\C)c3cccnc3)n2-c2ccccc2)cc1" , same question.
Condition met

"C/C(=N\NC(=S)Nc1ccccc1)c1cccnc1" , same question.
Condition met

"C/C(=N\Nc1nc(-c2cccc([N+](=O)[O-])c2)cs1)c1cccnc1" , same question.
Condition not met

"C/C(=N\N=c1\scc(-c2ccc(F)cc2)n1C)c1cccnc1" , same question.
Condition not met

"COc1ccc(-c2cs/c(=N/N=C(\C)c3cccnc3)[nH]2)cc1" , same question.
Condition not met

// data source = ChEMBL document CHEMBL6121008
